biological target: EGFR wild type (EGFR WT) (Homo sapiens (Human), UniProt P00533); test: Cellular Phosphorylation Assay, Assay 5 (EGF-stimulated EGFR phosphorylation, NIH 3T3 cells); type: cell-based; settings: EGF-stimulated EGFR WT phosphorylation
Sequence (P00533 25-1210): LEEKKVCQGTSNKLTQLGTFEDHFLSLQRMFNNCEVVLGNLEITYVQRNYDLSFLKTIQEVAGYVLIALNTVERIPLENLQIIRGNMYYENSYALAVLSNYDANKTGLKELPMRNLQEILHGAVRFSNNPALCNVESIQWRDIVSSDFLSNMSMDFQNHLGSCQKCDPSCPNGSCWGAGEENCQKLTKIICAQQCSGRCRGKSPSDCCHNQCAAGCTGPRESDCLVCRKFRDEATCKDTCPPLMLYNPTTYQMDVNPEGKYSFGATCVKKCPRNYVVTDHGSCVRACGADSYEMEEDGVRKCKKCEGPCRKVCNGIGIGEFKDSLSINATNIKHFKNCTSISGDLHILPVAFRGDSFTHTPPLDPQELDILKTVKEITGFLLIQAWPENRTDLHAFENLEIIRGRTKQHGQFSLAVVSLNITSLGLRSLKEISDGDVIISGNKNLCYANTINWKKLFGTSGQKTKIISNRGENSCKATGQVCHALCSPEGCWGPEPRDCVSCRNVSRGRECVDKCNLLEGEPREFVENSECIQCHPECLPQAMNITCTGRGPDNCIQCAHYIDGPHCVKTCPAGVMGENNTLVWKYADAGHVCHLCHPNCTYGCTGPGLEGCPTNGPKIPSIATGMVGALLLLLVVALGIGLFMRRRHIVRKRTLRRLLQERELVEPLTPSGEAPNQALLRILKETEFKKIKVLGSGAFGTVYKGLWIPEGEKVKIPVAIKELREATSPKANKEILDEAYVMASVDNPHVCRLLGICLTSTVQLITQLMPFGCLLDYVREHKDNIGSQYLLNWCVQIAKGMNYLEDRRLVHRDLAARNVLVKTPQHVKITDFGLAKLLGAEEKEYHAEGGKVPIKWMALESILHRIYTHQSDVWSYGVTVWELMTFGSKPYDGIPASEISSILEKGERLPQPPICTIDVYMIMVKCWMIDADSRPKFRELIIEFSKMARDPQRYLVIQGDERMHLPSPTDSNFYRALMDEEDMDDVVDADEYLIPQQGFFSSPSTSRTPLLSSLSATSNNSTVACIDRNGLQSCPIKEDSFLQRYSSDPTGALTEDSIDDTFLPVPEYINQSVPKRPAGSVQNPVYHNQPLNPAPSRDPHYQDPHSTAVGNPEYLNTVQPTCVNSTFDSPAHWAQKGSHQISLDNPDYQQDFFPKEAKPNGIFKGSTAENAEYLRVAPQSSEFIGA
Each record here notes measured IC50.

Compound	Quantity Unit	Comparative Sign	IC50
C=CC(=O)N1CCN(c2ccc3ncnc(Nc4ccc(Oc5ccn6ncnc6c5)c(Cl)c4F)c3n2)C[C@H]1C(F)(F)F	µM	=	0.446
C=CC(=O)N1C2CC1CN(c1ccc3ncnc(Nc4cc(C)c(Oc5ccc6c(c5)ncn6C)cc4F)c3n1)C2	µM	≥	5
C=CC(=O)N1CCC(Sc2ccc3ncnc(Nc4ccc(Oc5ccn6ncnc6c5)c(Cl)c4F)c3n2)CC1	µM	=	0.639
C=CC(=O)N1C[C@H](c2ccc3ncnc(Nc4ccc(Oc5ccc6c(c5)ncn6C)c(C)c4F)c3n2)CC[C@H]1C	µM	≥	5
C=CC(=O)N1CCCC[C@@H](c2ccc3ncnc(Nc4ccc(Oc5ccc6c(c5)ncn6C)c(C)c4)c3n2)C1 (single isomer, unassigned)	µM	≥	5
C=CC(=O)N1CCCC[C@H](c2ccc3ncnc(Nc4ccc(Oc5ccc6c(c5)ncn6C)c(C)c4)c3n2)C1 (single isomer, unassigned)	µM	=	1.96

* * *

target: ErbB2 with Exon 20 YVMA insertion (HER2-YVMA) (Homo sapiens (Human), UniProt P04626, INS775YVMA); experiment: Cellular Phosphorylation Assay, Assay 4 (constitutive ErbB2 phosphorylation, NIH 3T3 cells); type: cell-based; conditions: ErbB2 YVMA phosphorylation
Sequence (P04626 other isoform, or with tags, fused parts or gaps ins YVMA behind 775): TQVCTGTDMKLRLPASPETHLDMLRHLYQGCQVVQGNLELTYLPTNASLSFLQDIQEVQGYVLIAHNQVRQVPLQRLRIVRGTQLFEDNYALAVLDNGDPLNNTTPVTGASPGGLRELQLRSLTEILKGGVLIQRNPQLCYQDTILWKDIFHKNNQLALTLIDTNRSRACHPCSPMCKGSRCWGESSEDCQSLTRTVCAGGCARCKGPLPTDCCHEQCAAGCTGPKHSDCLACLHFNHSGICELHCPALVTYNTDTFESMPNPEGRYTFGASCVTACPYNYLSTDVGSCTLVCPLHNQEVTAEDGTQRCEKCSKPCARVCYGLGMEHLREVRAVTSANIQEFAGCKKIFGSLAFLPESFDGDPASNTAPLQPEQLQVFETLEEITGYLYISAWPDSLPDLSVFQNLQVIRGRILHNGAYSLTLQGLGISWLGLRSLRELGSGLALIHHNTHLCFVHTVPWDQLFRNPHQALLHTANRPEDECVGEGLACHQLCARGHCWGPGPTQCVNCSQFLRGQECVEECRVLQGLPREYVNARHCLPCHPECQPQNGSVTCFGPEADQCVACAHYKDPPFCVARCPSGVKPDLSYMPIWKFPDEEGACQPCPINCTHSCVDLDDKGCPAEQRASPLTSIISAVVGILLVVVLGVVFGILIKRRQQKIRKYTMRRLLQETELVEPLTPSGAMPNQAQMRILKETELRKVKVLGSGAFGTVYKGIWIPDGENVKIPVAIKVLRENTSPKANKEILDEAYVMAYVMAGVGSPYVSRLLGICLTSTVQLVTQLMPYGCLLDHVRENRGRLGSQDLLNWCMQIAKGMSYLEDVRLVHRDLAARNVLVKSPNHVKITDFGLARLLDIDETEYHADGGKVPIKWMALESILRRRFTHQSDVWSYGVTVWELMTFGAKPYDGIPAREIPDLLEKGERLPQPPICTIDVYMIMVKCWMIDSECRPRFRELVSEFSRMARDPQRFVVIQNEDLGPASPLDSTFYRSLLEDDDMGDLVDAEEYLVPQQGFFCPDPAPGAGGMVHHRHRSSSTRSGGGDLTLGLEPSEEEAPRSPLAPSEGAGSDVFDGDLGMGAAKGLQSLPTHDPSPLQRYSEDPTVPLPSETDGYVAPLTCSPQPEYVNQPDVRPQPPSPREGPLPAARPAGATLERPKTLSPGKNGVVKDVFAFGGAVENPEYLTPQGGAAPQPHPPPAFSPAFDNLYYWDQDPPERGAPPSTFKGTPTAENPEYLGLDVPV
pIC50: −log10 of the molar value.
Collected pIC50 values appear next to each entry.
Parameter: pIC50

Compound	Parameter	Numeric Value
C=CC(=O)N1CC[C@@H](c2ccc3ncnc(Nc4ccc(Oc5ccn6ncnc6c5)c(C)c4F)c3n2)CC12CC2 (single isomer, unassigned)	pIC50	7.68
C=CC(=O)N1C[C@H]2C[C@@H]1CN2c1ccc2ncnc(Nc3ccc(Oc4ccn5ncnc5c4)c(Cl)c3F)c2n1	pIC50	7.81
C=CC(=O)N1[C@@H]2CC[C@H]1[C@H](c1ccc3ncnc(Nc4ccc(Oc5ccn6ncnc6c5)c(C)c4F)c3n1)C2 (single isomer, unassigned) [Example 228]	pIC50	7.47

* * *

target: ErbB2 WT (Homo sapiens (Human), UniProt P04626); test: ErbB Enzyme Assay (HTRF KinEASE-TK), Assay 2; assay type: biochemical; conditions: ErbB2 WT enzyme
Sequence (P04626 23-1255): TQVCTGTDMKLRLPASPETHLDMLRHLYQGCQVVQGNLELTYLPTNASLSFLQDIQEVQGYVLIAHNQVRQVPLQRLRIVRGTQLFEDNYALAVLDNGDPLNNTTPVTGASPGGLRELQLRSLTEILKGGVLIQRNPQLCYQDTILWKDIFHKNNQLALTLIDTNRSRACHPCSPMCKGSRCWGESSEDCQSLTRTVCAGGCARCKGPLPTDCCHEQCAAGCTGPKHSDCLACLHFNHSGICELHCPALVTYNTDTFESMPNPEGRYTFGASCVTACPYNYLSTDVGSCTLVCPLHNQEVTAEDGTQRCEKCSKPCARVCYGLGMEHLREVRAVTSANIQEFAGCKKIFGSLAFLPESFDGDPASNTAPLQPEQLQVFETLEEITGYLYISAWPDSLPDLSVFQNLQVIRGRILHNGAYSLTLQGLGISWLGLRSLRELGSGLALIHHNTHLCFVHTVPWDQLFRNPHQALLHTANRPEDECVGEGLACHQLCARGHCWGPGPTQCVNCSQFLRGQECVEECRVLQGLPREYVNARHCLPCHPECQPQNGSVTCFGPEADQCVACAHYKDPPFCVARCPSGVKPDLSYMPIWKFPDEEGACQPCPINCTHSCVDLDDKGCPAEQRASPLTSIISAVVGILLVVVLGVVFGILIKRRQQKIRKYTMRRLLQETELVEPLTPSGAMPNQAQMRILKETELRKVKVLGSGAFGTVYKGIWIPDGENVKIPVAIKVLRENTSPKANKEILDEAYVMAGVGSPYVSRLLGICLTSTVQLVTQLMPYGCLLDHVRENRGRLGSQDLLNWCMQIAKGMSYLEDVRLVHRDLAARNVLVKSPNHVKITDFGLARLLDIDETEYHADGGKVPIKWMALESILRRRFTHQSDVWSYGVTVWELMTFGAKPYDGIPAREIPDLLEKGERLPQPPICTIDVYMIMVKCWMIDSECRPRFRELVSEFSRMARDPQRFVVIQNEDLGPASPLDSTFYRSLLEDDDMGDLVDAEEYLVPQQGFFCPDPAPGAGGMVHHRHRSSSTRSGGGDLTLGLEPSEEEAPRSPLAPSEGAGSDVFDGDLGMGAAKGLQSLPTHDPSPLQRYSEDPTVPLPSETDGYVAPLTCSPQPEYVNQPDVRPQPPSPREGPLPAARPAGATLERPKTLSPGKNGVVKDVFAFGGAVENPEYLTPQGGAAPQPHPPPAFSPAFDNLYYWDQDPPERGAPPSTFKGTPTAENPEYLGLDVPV

Compound	IC50 [nM]
C=C(F)C(=O)N1[C@@H]2CC[C@H]1C[C@@H](c1ccc3ncnc(Nc4cc(C)c(Oc5ccn6ncnc6c5)cc4F)c3n1)C2	150
C=CC(=O)N1C2CCC1CN(c1ccc3ncnc(Nc4ccc(Oc5ccn6ncnc6c5)c(Cl)c4F)c3n1)C2	11.7
C=CC(=O)N1C[C@H]2CC[C@@H]1C[C@@H]2c1ccc2ncnc(Nc3ccc(Oc4ccn5ncnc5c4)c(C)c3F)c2n1 (racemic) [Example 217]	18.8

* * *

Molecular target: UniProtKB P00533
Assay: ErbB Enzyme Assay (HTRF KinEASE-TK), Assay 3
Assay type: biochemical
Conditions: EGFR enzyme assay
Description: The kinases were incubated with 250 nM TK-substrate biotin (CisBio, part of cat #62TKOPEC) at 1 mM ATP along with test compounds in a buffer consisting of 25 mM HEPES, pH 7.4, 10 mM MgCl2, 0.01% Triton X-100, and 2% DMSO in a volume of 8 μL. […] After 30-minute incubation at 22° C., the reaction was quenched by adding 8 μL of quench solution containing 62.5 nM Sa-XL665 and 0.25×TK-Ab-Cryptate in HTRF detection buffer (all from CisBio, part of cat #62TKOPEC). […]
pIC50: −log10 of the molar value.
# Lookup of reported pIC50 keyed by entry
Parameter: pIC50

Item Smiles	Comparative Sign	Numeric Value
C=CC(=O)N1[C@H](C)CN(c2ccc3ncnc(Nc4ccc(Oc5cc(F)c6c(c5)ncn6C)c(C)c4)c3n2)C[C@@H]1C	=	5.47
C=CC(=O)N1C[C@H]2CC[C@@H]1C[C@H]2c1ccc2ncnc(Nc3cc(C)c(Oc4ccn5ncnc5c4)cc3F)c2n1	=	5.31
C=CC(=O)N1[C@@H]2CC[C@H]1[C@H](c1ccc3ncnc(Nc4ccc(Oc5ccc6c(c5)ncn6C)c(C)c4F)c3n1)C2	=	6.60
C=CC(=O)N1CCN(c2ccc3ncnc(Nc4ccc(Oc5cc(F)c6c(c5)ncn6C)c(C)c4)c3n2)CC1(C)C	=	6.00
C=CC(=O)N1C[C@H]2CC[C@@H]1[C@H](c1ccc3ncnc(Nc4cc(C)c(Oc5cnc6c(c5)ncn6C)cc4F)c3n1)C2	≤	5.00
C=CC(=O)N1CC2CCC(C1)N2c1ccc2ncnc(Nc3ccc(Oc4ccn5ncnc5c4)c(C)c3F)c2n1	=	7.06
C=CC(=O)N1[C@@H](C)CN(c2ccc3ncnc(Nc4ccc(Oc5ccc6c(c5)ncn6C)c(C)c4F)c3n2)C[C@@H]1C	≤	5.00
C=CC(=O)N1CCN(c2ccc3ncnc(Nc4ccc(Oc5ccn6ncnc6c5)c(C)c4F)c3n2)CC12CCC2	=	6.36
C=CC(=O)N1C[C@H]2C[C@@H]1CN(c1ccc3ncnc(Nc4cc(C)c(Oc5cnc6c(c5)ncn6C)cc4F)c3n1)C2	≤	5.00
C=CC(=O)N1CC[C@H]2C[C@@H]1CN2c1ccc2ncnc(Nc3ccc(Oc4ccn5ncnc5c4)c(Cl)c3F)c2n1	=	5.72
C=CC(=O)N(C)[C@@H]1CCN(c2ccc3ncnc(Nc4ccc(Oc5ccn6ncnc6c5)c(C)c4F)c3n2)C1	=	5.57
C=CC(=O)N1C[C@@H]2CC[C@H]1CN2c1ccc2ncnc(Nc3cc(C)c(Oc4cnc5c(c4)ncn5C)cc3F)c2n1	=	6.38
C=C(C)C(=O)N1CCN(c2ccc3ncnc(Nc4ccc(Oc5ccn6ncnc6c5)c(C)c4F)c3n2)CC1(C)C	≤	5.00

* * *

Molecular target: EGFR wild type (EGFR WT) (Homo sapiens (Human), UniProt P00533)
Assay: Cellular Phosphorylation Assay, Assay 5 (EGF-stimulated EGFR phosphorylation, NIH 3T3 cells)
Type: cell-based
Details: cellular EGFR WT phosphorylation, EGF-stimulated
Experimental: NIH 3T3 cells were engineered to express ErbB2 with Exon 20 YVMA insertion (HER2-YVMA (SEQ ID NO: 2); Assay 4) or EGFR wild type (EGFR WT; Assay 5) with constructs obtained from GenScript and grown in DMEM supplemented with 10% fetal bovine serum and 15 μg/ml blasticidin. […] Serially diluted compounds were added to the plates for 1 hour at 37° C./5% CO2. EGFR WT cells were stimulated with 100 ng/ml rEGF for an additional 10 minutes at 37° C./5% CO2. […]
Mark Satisfied only for IC50 values smaller than 400 nM; exact matches and larger values are Not satisfied.

Compound	Class Label
C=CC(=O)N1CCC12CN(c1ccc3ncnc(Nc4ccc(Oc5ccn6ncnc6c5)c(Cl)c4F)c3n1)C2	Satisfied
C=CC(=O)N1C[C@H](c2ccc3ncnc(Nc4ccc(Oc5ccn6ncnc6c5)c(C)c4F)c3n2)C[C@H]1C (mixture of isomers)	Not satisfied
C=CC(=O)N1C[C@H]2C[C@@H]1[C@H](c1ccc3ncnc(Nc4cc(C)c(Oc5ccn6ncnc6c5)cc4F)c3n1)C2	Not satisfied
C=CC(=O)N1CC[C@H](c2ccc3ncnc(Nc4ccc(Oc5ccn6ncnc6c5)c(C)c4F)c3n2)CC1(C)C (racemic)	Not satisfied
C=CC(=O)N1CCCCC(c2ccc3ncnc(Nc4ccc(Oc5ccn6ncnc6c5)c(C)c4F)c3n2)C1 (stereo not shown)	Not satisfied
C=CC(=O)N1CCN(c2ccc3ncnc(Nc4ccc(Oc5ccn6ncnc6c5)c(C(F)F)c4)c3n2)CC1(C)C	Not satisfied
C=CC(=O)N1CCN(c2ccc3ncnc(Nc4ccc(Oc5ccc6c(c5)ncn6C)c(C)c4F)c3n2)CC12CC2	Satisfied
C=CC(=O)N1C[C@@H]2C[C@H]1C[C@H]2c1ccc2ncnc(Nc3cc(C)c(Oc4ccn5ncnc5c4)cc3F)c2n1	Not satisfied
C=CC(=O)N1CCC(c2ccc3ncnc(Nc4ccc(Oc5ccn6ncnc6c5)c(C)c4F)c3n2)CC12CC2 (stereo not shown)	Not satisfied
C=CC(=O)N1[C@@H]2CC[C@H]1CC(c1ccc3ncnc(Nc4ccc(Oc5ccn6ncnc6c5)c(C)c4F)c3n1)C2 (stereo partly shown)	Not satisfied
C=CC(=O)N1CCN(c2ccc3ncnc(Nc4cc(C)c(Oc5ccn6ncnc6c5)cc4F)c3n2)C[C@@H]1C(F)F (racemic)	Satisfied
C=CC(=O)N1C[C@@H]2C[C@H]1CN(c1ccc3ncnc(Nc4ccc(Oc5ccn6ncnc6c5)c(C)c4F)c3n1)C2	Not satisfied
C=CC(=O)N1CC[C@H]2C[C@H](c3ccc4ncnc(Nc5ccc(Oc6ccn7ncnc7c6)c(C)c5)c4n3)C[C@H]21	Not satisfied

* * *

Target: EGFR (Homo sapiens (Human), UniProt P00533)
Sequence (P00533 25-1210): as the sequence (P00533 25-1210) above
Assay: ErbB Enzyme Assay (HTRF KinEASE-TK), Assay 3
Assay type: biochemical
Settings: EGFR enzyme
Method: The kinases were incubated with 250 nM TK-substrate biotin (CisBio, part of cat #62TKOPEC) at 1 mM ATP along with test compounds in a buffer consisting of 25 mM HEPES, pH 7.4, 10 mM MgCl2, 0.01% Triton X-100, and 2% DMSO in a volume of 8 μL. […] After 30-minute incubation at 22° C., the reaction was quenched by adding 8 μL of quench solution containing 62.5 nM Sa-XL665 and 0.25×TK-Ab-Cryptate in HTRF detection buffer (all from CisBio, part of cat #62TKOPEC). […]
# reported IC50; entries follow

Compound	Comparative Sign	IC50 [µM]
C=CC(=O)N1CCN(c2ccc3ncnc(Nc4ccc(Oc5cnc6c(c5)ncn6C)c(C)c4F)c3n2)CC1(C)C	≥	10
C=CC(=O)N1C[C@H]2C[C@@H]1CN2c1ccc2ncnc(Nc3ccc(Oc4ccn5ncnc5c4)c(C)c3F)c2n1	≥	10
C=CC(=O)N1CCC(Oc2ccc3ncnc(Nc4ccc(Oc5ccc6sc(C)nc6c5)c(C)c4)c3n2)CC1	≥	10
C=CC(=O)N1CC[C@H]2C[C@@H](c3ccc4ncnc(Nc5cc(C)c(Oc6ccc7c(c6)ncn7C)cc5F)c4n3)C[C@H]21 (racemic)	≥	10
C=CC(=O)N1CCCN(c2ccc3ncnc(Nc4ccc(Oc5ccc6c(c5)ncn6C)c(C)c4)c3n2)CC1	≥	10
C=CC(=O)N1CCCC(c2ccc3ncnc(Nc4ccc(Oc5ccn6ncnc6c5)c(C)c4F)c3n2)C1 (stereo not drawn)	=	0.342
C=CC(=O)N1CCC(c2ccc3ncnc(Nc4ccc(Oc5ccc6c(c5)ncn6C)c(C)c4)c3n2)C1 (racemic)	=	7.27
C=CC(=O)N1CCC(Sc2ccc3ncnc(Nc4ccc(Oc5ccc6c(c5)ncn6C)c(C)c4F)c3n2)CC1	≥	10
C=CC(=O)N1CCCC(c2ccc3ncnc(Nc4ccc(Oc5ccc6c(c5)ncn6C)c(C)c4)c3n2)CC1 (stereo not drawn)	=	5.57
C=CC(=O)N1CCC(N(C)c2ccc3ncnc(Nc4ccc(Oc5ccn6ncnc6c5)c(C)c4F)c3n2)CC1	=	5.53
C=CC(=O)N1CC[C@@H]2C[C@H]1CN2c1ccc2ncnc(Nc3cc(C)c(Oc4ccc5c(c4)ncn5C)cc3F)c2n1	=	0.0845
C=CC(=O)N1CCN(c2ccc3ncnc(Nc4cc(Cl)c(Oc5ccn6ncnc6c5)cc4F)c3n2)CC1	=	9.43
C=CC(=O)N1CC[C@@H]2[C@H](c3ccc4ncnc(Nc5ccc(Oc6ccc7c(c6)ncn7C)c(C)c5F)c4n3)CC[C@@H]21 (racemic)	≥	10
C=CC(=O)N1CCC[C@@H](c2ccc3ncnc(Nc4cc(C)c(Oc5ccc6c(c5)ncn6C)cc4F)c3n2)C1 (racemic)	=	7.93
C=CC(=O)N1CCC(Oc2ccc3ncnc(Nc4ccc(Oc5ccc6cn(C)nc6c5)c(Cl)c4F)c3n2)CC1	≥	10
C=CC(=O)N1CC(Sc2ccc3ncnc(Nc4ccc(Oc5ccc6c(c5)ncn6C)c(C)c4F)c3n2)C1	=	0.283
C=CC(=O)N1CCC[C@@H](c2ccc3ncnc(Nc4ccc(Oc5ccc6c(c5)ncn6C)c(C)c4)c3n2)C1 (racemic)	=	1.4
C=CC(=O)N1CCN(c2ccc3ncnc(Nc4ccc(Oc5ccc6c(c5)ncn6C)c(C)c4F)c3n2)C[C@@H]1C1CC1	≥	10
C=CC(=O)N1CC[C@@H]2C[C@H]1CN2c1ccc2ncnc(Nc3ccc(Oc4ccc5c(c4)ncn5C)c(C)c3F)c2n1	=	0.311
C=CC(=O)N1CCN(c2ccc3ncnc(Nc4ccc(Oc5ccn6ncnc6c5)c(Cl)c4F)c3n2)CC1(C)C	=	0.463
C=CC(=O)N1CCN(c2ccc3ncnc(Nc4ccc(Oc5ccc6c(c5)ncn6C)c(C)c4)c3n2)CC1	=	0.68
C=CC(=O)N1C2CC1CN(c1ccc3ncnc(Nc4cc(C)c(Oc5ccn6ncnc6c5)cc4F)c3n1)C2	≥	10
C=CC(=O)N1C[C@H]2C[C@H](c3ccc4ncnc(Nc5ccc(Oc6ccn7ncnc7c6)c(C)c5F)c4n3)C[C@H]2C1	=	2.78
C=CC(=O)N1CCCN(c2ccc3ncnc(Nc4ccc(Oc5ccn6ncnc6c5)c(C)c4F)c3n2)CC1	=	9.57
C=CC(=O)N1C[C@H](c2ccc3ncnc(Nc4ccc(Oc5ccc6c(c5)ncn6C)c(C)c4F)c3n2)CC[C@H]1C	=	1.81
C=CC(=O)N1C[C@@H]2C[C@H]1CN(c1ccc3ncnc(Nc4cc(Cl)c(Oc5ccc6c(c5)ncn6C)cc4F)c3n1)C2	≥	10
C=CS(=O)(=O)N(C)c1ccc2ncnc(Nc3ccc(Oc4ccc5c(c4)ncn5C)c(C)c3)c2n1	=	0.466
